Target: T1, CRBN, Q96SW2;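 further: pooled lentiviral library of zinc finger degron-EGFP fusions in mCherry-positive Jurkat cells, FACS-sorted after compound exposure, with degron abundance counted by next-generation sequencing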
T1 chain: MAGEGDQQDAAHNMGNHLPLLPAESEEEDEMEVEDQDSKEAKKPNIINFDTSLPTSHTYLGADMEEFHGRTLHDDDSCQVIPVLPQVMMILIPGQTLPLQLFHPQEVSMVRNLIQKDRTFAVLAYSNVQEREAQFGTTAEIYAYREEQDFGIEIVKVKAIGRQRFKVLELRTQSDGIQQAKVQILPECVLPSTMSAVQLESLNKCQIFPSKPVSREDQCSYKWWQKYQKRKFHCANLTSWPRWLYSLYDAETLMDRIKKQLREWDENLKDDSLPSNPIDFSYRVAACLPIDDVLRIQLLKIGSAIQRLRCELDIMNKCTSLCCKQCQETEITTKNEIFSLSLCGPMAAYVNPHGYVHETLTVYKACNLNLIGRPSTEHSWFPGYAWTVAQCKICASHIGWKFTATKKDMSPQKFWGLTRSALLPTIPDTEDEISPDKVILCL
Experiment: log2 fold change of degron read counts, EGFP-low vs EGFP+ sorted cells (limma voom), compound-induced degradation; higher = more compound-induced degradation of the degron-EGFP fusion; degrons are variants of IKZF1/3 zinc finger 2; compound dose not given here
Details: Jurkat; 18 h; compound: compound 33 (diphenyl IMiD analogue)
Over roughly 8,300 sequences, “log2 fold change of degron read counts, EGFP-low vs EGFP+ sorted cells (limma voom), compound-induced degradation” has its median near -1.1; the highest 2% begin near 3.2. Many of the other results were omitted from the sample, so the highest values are more common in it than they were.
Decision: log2 fold change of degron read counts >= -0.4 yields met, all other cases yield not met.

Solved entries (count: 5):
[
  {
    "seq": "FRCPVCGANFTQKGNLLRHIKL [46F_47R_49P_50V_52G_53A_54N_55F_67L_, Q9UKT9]",
    "categoryLabel": "met"
  },
  {
    "seq": "FECNVCGANFTQKGNLLRHIKL [46F_47E_49N_50V_52G_53A_54N_55F_67L_, Q9UKT9]",
    "categoryLabel": "met"
  },
  {
    "seq": "FRCPICGHQFTQKGNLLRHIKL [46F_47R_49P_50I_52G_53H_54Q_55F_67L_, Q9UKT9]",
    "categoryLabel": "not met"
  },
  {
    "seq": "FYCNQCGRLFTQKGNLLRHIKL [46F_47Y_49N_50Q_52G_53R_54L_55F_67L_, Q9UKT9]",
    "categoryLabel": "not met"
  },
  {
    "seq": "FWCDVCGANFTQKGNLLRHIKL [46F_47W_49D_50V_52G_53A_54N_55F_67L_, Q9UKT9]",
    "categoryLabel": "met"
  }
]

Inquiry: Confirm if log2 fold change of degron read counts reported for the sequence FKCEICGAKFTQKGNLLRHIKL [46F_47K_49E_50I_52G_53A_54K_55F_67L_, Q9UKT9] is -0.4 or above.
Reply text: not met

Inquiry: How about this sequence: FHCEICGAKFTQKGNLLRHIKL [46F_47H_49E_50I_52G_53A_54K_55F_67L_, Q9UKT9]
Reply text: met

Inquiry: How about this sequence: FLCEICGAKFTQKGNLLRHIKL [46F_47L_49E_50I_52G_53A_54K_55F_67L_, Q9UKT9]
Reply text: met

Inquiry: How about this sequence: FCCNQCGHDFTQKGNLLRHIKL [46F_47C_49N_50Q_52G_53H_54D_55F_67L_, Q9UKT9]
Reply text: not met

Inquiry: How about this sequence: FGCPICGHQFTQKGNLLRHIKL [46F_47G_49P_50I_52G_53H_54Q_55F_67L_, Q9UKT9]
Reply text: not met

Inquiry: How about this sequence: FVCDVCGANFTQKGNLLRHIKL [46F_47V_49D_50V_52G_53A_54N_55F_67L_, Q9UKT9]
Reply text: met

Inquiry: How about this sequence: FSCEICGAKFTQKGNLLRHIKL [46F_47S_49E_50I_52G_53A_54K_55F_67L_, Q9UKT9]
Reply text: not met

Inquiry: How about this sequence: FECDVCGANFTQKGNLLRHIKL [46F_47E_49D_50V_52G_53A_54N_55F_67L_, Q9UKT9]
Reply text: met

Inquiry: How about this sequence: FICPVCGANFTQKGNLLRHIKL [46F_47I_49P_50V_52G_53A_54N_55F_67L_, Q9UKT9]
Reply text: met

Inquiry: How about this sequence: FECDVCGAMFTQKGNLLRHIKL [46F_47E_49D_50V_52G_53A_54M_55F_67L_, Q9UKT9]
Reply text: not met
